Test system: recombinant human HDACs
Assay: HDAC enzymatic assay (LabChip capillary electrophoresis)
Type: biochemical
Details: 5 nM HDAC enzyme, 1 uM substrate, 5 hours pre-incubation, 17 hours reaction at 25°C; isoform not given
endpoint: IC50

Solved entries (count: 10):
molecule: CN1CCC2(CC1)CCN(C(=O)Nc1nc(-c3cccnc3)ccc1N)C2 [Compound 210]
IC50: > 5000 nM
--
molecule: Cc1cnc(C(=O)Nc2nc(-c3ccc(F)cc3)ccc2N)s1 [Compound 226]
IC50: 100 to 500 nM
--
molecule: CN1CC=C(c2cc3c(cn2)CN(C(=O)Nc2nc(-c4ccc(F)cc4)ccc2N)C3)CC1 [Compound 148]
IC50: 100 to 500 nM
--
molecule: Cc1cc2c(cn1)CN(C(=O)Nc1nc(-c3ccc(F)cc3)ccc1N)C2 [Compound 151]
IC50: 100 to 500 nM
--
molecule: Nc1ccc(-c2ccc(F)cc2)nc1NC(=O)N1C[C@@H]2[C@H](C1)[C@H]2NC1COC1 [Compound 267]
IC50: > 5000 nM
--
molecule: COc1cccc(CN2CCCC3(CCN(C(=O)Nc4nn(-c5ccc(F)cc5)cc4N)C3)C2)c1 (centres unmarked) [Compound 124]
IC50: > 5000 nM
--
molecule: Nc1ccc(-c2ccco2)nc1NC(=O)C1CN(Cc2ccccc2)C1 [Compound 198]
IC50: > 5000 nM
--
molecule: Nc1ccc(-c2ccc(F)cc2)nc1NC(=O)N1Cc2cnc(N3CCOCC3)cc2C1 [Compound 150]
IC50: 100 to 500 nM
--
molecule: Cn1cc(CN2CCC3(CC2)CCN(C(=O)Nc2nc(-c4cccnc4)ccc2N)C3)cn1 [Compound 215]
IC50: > 5000 nM
--
molecule: Nc1ccc(-c2cccnc2)nc1NC(=O)c1cn2c(n1)CNCC2 [Compound 219]
IC50: > 5000 nM

Exercise: What does the data say about its IC50? Entry: Nc1ccc(-c2ccc(F)cc2)nc1NC(=O)N1Cc2cnc(C3CCOCC3)cc2C1 [Compound 240]
Solution: 100 to 500 nM

Exercise: What does the record list as IC50 for Nc1ccc(-c2cccnc2)nc1NC(=O)c1nc2c(s1)CCN(CCF)C2 [Compound 164] ?
Solution: 500 to 5000 nM

Exercise: Which IC50 is reported for this molecule? Nc1ccc(-c2ccc(F)cc2)nc1NC(=O)N1Cc2cc(CN3CC(F)C3)cnc2C1 [Compound 275]
Solution: 100 to 500 nM

Exercise: Name the reported IC50 value associated with the molecule CN1CCC(c2cnc3c(c2)CN(C(=O)Nc2nc(-c4cccnc4)ccc2N)C3)CC1 [Compound 265]
Solution: 500 to 5000 nM

* * *

pIC50: recorded values
Tested on: recombinant human HDACs
Experiment: HDAC enzymatic assay (LabChip capillary electrophoresis)
Assay type: biochemical
Conditions: 5 nM HDAC enzyme, 1 uM substrate, 5 hours pre-incubation, 17 hours reaction at 25°C; isoform not given
pIC50: −log10 of the molar value.

Recorded pIC50, per entry:
compound: CN(C)Cc1ccc2c(c1)CN(C(=O)Nc1nc(-c3ccc(Cl)s3)ccc1N)C2
target: recombinant human HDACs
pIC50: < 5.30

compound: CN(C1COC1)[C@H]1[C@@H]2CN(C(=O)Nc3nc(-c4ccc(F)cc4)ccc3N)C[C@@H]21
target: recombinant human HDACs
pIC50: < 5.30

compound: CN1CCN(Cc2ccc3c(c2)CN(C(=O)Nc2nn(-c4ccccc4)cc2N)C3)CC1
target: recombinant human HDACs
pIC50: 5.30 to 6.30

We now examine a further compound.
Exercise: # input compound: COC1CCN(Cc2ccc3c(c2)CN(C(=O)Nc2nc(-c4ccc(F)cc4)ccc2N)C3)C1 (stereo not shown) ; wanted: its pIC50
Solution: 6.30 to 7.00

* * *

Test system: recombinant human HDACs
Experiment: HDAC enzymatic assay (LabChip capillary electrophoresis)
Assay type: biochemical
Conditions: 5 nM HDAC enzyme, 1 uM substrate, 5 hours pre-incubation, 17 hours reaction at 25°C; isoform not given
endpoint: IC50

Exercise: Entry COCC1CCN(C(=O)Nc2nc(-c3ccc(F)cc3)ccc2N)C1 (stereo not drawn) [Compound 389] : reported IC50 = ?
Solution: > 5000 nM

Exercise: # lookup: IC50 of CN(C)Cc1cnc2c(c1)CN(C(=O)Nc1nc(-c3ccc(F)cc3)ccc1N)C2 [Compound 154]
Solution: 100 to 500 nM

Exercise: Param item = Nc1ccc(-c2cccs2)nc1NC(=O)N1Cc2nccnc2C1 [Compound 156] ; retrieve measured IC50.
Solution: 100 to 500 nM

* * *

Each entry below carries its reported pIC50.
Tested on: recombinant human HDACs
Assay: HDAC enzymatic assay (LabChip capillary electrophoresis)
Format: biochemical
Conditions: 5 nM HDAC enzyme, 1 uM substrate, 5 hours pre-incubation, 17 hours reaction at 25°C; isoform not given
pIC50: −log10 of the molar value.

compound: Nc1ccc(-n2cccn2)nc1NC(=O)N1Cc2cc(F)cnc2C1 [Compound 185]
result: 5.30 to 6.30

Exercise: Looking for the measured pIC50 of COc1ccc(-c2ccc(N)c(NC(=O)N3Cc4ccncc4C3)n2)cc1 [Compound 173] , can you help?
Solution: 5.30 to 6.30

Exercise: Please look up its pIC50: Nc1cn(-c2ccccc2)nc1NC(=O)N1Cc2ccc(CO)cc2C1 [Compound 350]
Solution: 5.30 to 6.30

* * *

Reported IC50 values are given for each entry in this list.
System: recombinant human HDACs
Assay: HDAC enzymatic assay (LabChip capillary electrophoresis)
Type: biochemical
Conditions: 5 nM HDAC enzyme, 1 uM substrate, 5 hours pre-incubation, 17 hours reaction at 25°C; isoform not given

molecule: Nc1cn(-c2ccccc2)nc1NC(=O)N1CCC2(CCOCC2)C1
target: recombinant human HDACs
IC50: > 5 µM

Exercise: Any idea what IC50 came out for COCc1cc2c(cn1)CN(C(=O)Nc1nc(-c3ccc(F)cc3)ccc1N)C2 on recombinant human HDACs?
Solution: 0.1 to 0.5 µM

* * *

System: recombinant human HDACs
Test: HDAC enzymatic assay (LabChip capillary electrophoresis)
Format: biochemical
Conditions: 5 nM HDAC enzyme, 1 uM substrate, 5 hours pre-incubation, 17 hours reaction at 25°C; isoform not given
Listed here are compounds together with their documented IC50.

compound: Nc1ccc(-c2ccc(F)cc2)nc1NC(=O)N1CC2CC(NC3COC3)CC2C1 (stereo not shown) [Compound 172]
IC50: 500 to 5000 nM

Exercise: I am curious: what IC50 value has been reported for Nc1ccc(-c2ccc(F)cc2)nc1NC(=O)c1nc2c(s1)CCN(CCF)C2 [Compound 165] ?
Solution: 100 to 500 nM

Exercise: Field request: IC50 | item: Nc1ccc(-c2ccc(F)cc2)nc1NC(=O)N1CC2CCCC2C1 (stereo not shown) [Compound 385]
Solution: 500 to 5000 nM

Exercise: Quick one: IC50 for Nc1ccc(-c2ccc(F)cc2)nc1NC(=O)N1Cc2cc(N3CCOCC3)cnc2C1 [Compound 158] ?
Solution: 100 to 500 nM

Hello, the source for this data is patent EP3319959B1, in case you need it.
